Assay: amyloid nucleation score (Sup35N fusion, yeast selection) (log enrichment); library NNK1; higher = more nucleation; inactive = no reads after selection;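 further: zero at mode of non-aggregating sequences after 7 days selection at 30°C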
Property name: amyloid nucleation score
Output: the number by itself.

## Task Identify the reported amyloid nucleation score for the following entry. `LEMVINSFRELSLAY`
## Result -0.212

## Task Identify the reported amyloid nucleation score for the following entry. `DKRYGDEVRHTGRWSRSVVW`
## Result 0.013

## Task Identify the reported amyloid nucleation score for the following entry. `YLDSILYMGLTDLVWQVGTT`
## Result -0.334

---

Assay: amyloid nucleation score (Sup35N fusion, yeast selection) (log enrichment); library NNK3; higher = more nucleation; inactive = no reads after selection
Property name: amyloid nucleation score

In the examples that follow, each entry is paired with its recorded amyloid nucleation score.
[
  {
    "Sequence record": "AHGFLSVFV",
    "Property name": "amyloid nucleation score",
    "Meas value": 0.92
  },
  {
    "Sequence record": "ACTLLCFRIAQLEFLWVRVD",
    "Property name": "amyloid nucleation score",
    "Meas value": "inactive"
  },
  {
    "Sequence record": "DYIRHSFHCVLILSDKSHFS",
    "Property name": "amyloid nucleation score",
    "Meas value": "inactive"
  },
  {
    "Sequence record": "YDMTRHLYVSSPEIVKPY",
    "Property name": "amyloid nucleation score",
    "Meas value": "inactive"
  },
  {
    "Sequence record": "SQKEGNKDRPVCVSGNSSCS",
    "Property name": "amyloid nucleation score",
    "Meas value": "inactive"
  }
]

## Task Identify the reported amyloid nucleation score for the following entry. `KCYNKVWELMLAYG`
## Result inactive

## Task Identify the reported amyloid nucleation score for the following entry. `ANSSRDMCSLLVLVRGTQ`
## Result -0.385

## Task Identify the reported amyloid nucleation score for the following entry. `VAADITSEA`
## Result inactive

## Task Identify the reported amyloid nucleation score for the following entry. `FLVLLKTCYDSRPWP`
## Result 1.72

---

Assay: amyloid nucleation score (Sup35N fusion, yeast selection) (log enrichment); library NNK3; higher = more nucleation; inactive = no reads after selection
Property name: amyloid nucleation score

In the examples that follow, each entry is paired with its recorded amyloid nucleation score.
[
  {
    "Sequence record": "SMCKDFSAACESICGIPVGY",
    "amyloid nucleation score": "inactive"
  },
  {
    "Sequence record": "TPPVWTSPSSRLASCFKGLW",
    "amyloid nucleation score": 1.31
  },
  {
    "Sequence record": "DSISCCSPNITAYEFYGLTG",
    "amyloid nucleation score": 2.06
  },
  {
    "Sequence record": "MLLDTLCNHLRVYKYVRGDG",
    "amyloid nucleation score": "inactive"
  },
  {
    "Sequence record": "GILCVEMSVTSLGLIIETYF",
    "amyloid nucleation score": "inactive"
  }
]

## Task Identify the reported amyloid nucleation score for the following entry. `AQGVTHLWEARNLWVWVEDQ`
## Result -0.316

## Task Identify the reported amyloid nucleation score for the following entry. `PISLCSWATRFCSYFDKHKL`
## Result inactive

## Task Identify the reported amyloid nucleation score for the following entry. `KTNRFHIDFAIDTPRLSLFL`
## Result inactive

---

Test: amyloid nucleation score (Sup35N fusion, yeast selection) (log enrichment); library NNK3; higher = more nucleation; inactive = no reads after selection
Property name: amyloid nucleation score

In the examples that follow, each entry is paired with its recorded amyloid nucleation score.
[
  {
    "Substance": "YLHVVTWLMNACPGQPRHWL",
    "amyloid nucleation score": "inactive"
  },
  {
    "Substance": "SSPSWFTYLVKQVALRSVTQ",
    "amyloid nucleation score": 1.55
  },
  {
    "Substance": "WHMWMESKLWQPQRATSVFP",
    "amyloid nucleation score": "inactive"
  },
  {
    "Substance": "GSQYNSFSK",
    "amyloid nucleation score": "inactive"
  },
  {
    "Substance": "VNIWLPKTPLQLKLNLPSSM",
    "amyloid nucleation score": -0.829
  },
  {
    "Substance": "ELLVNN",
    "amyloid nucleation score": "inactive"
  }
]

## Task Identify the reported amyloid nucleation score for the following entry. `LNFCDRTIEICRLEY`
## Result inactive

## Task Identify the reported amyloid nucleation score for the following entry. `SLNMSN`
## Result inactive

## Task Identify the reported amyloid nucleation score for the following entry. `WRFFDVDNNMSTHVLKQLRC`
## Result inactive

## Task Identify the reported amyloid nucleation score for the following entry. `PTFFTSVLGFNYRVLYRIAV`
## Result inactive

## Task Identify the reported amyloid nucleation score for the following entry. `VWSEDIYFCIILRLMDKS`
## Result inactive

## Task Identify the reported amyloid nucleation score for the following entry. `SGSWVNDSESAEDLT`
## Result inactive

## Task Identify the reported amyloid nucleation score for the following entry. `LQFVMLRTWVLRSRGTQAVT`
## Result 0.592

## Task Identify the reported amyloid nucleation score for the following entry. `IRPSLLMSLQNNDMMADLEV`
## Result -0.538

---

Experiment: amyloid nucleation score (Sup35N fusion, yeast selection) (log enrichment); library NNK2; higher = more nucleation; inactive = no reads after selection
Form field: amyloid nucleation score (one value per entry).
Output: the number by itself.

[
  {
    "Sequence record": "SSKFTHDYGGEDIVIDQDES",
    "Meas value": 0.14
  },
  {
    "Sequence record": "SIPIIETGVWYVNNRVLMN",
    "Meas value": -1.43
  },
  {
    "Sequence record": "TTHVNLIKRRGYFRRCVFQL",
    "Meas value": 0.087
  },
  {
    "Sequence record": "LFFFSGRWKVNGGIVDGCGV",
    "Meas value": 0.166
  },
  {
    "Sequence record": "WHGVDVIVRLMVAHPLGRTS",
    "Meas value": 4.36
  }
]

## Task Identify the reported amyloid nucleation score for the following entry. `IHKETGLEIVARRKVHFDGG`
## Result 0.524

## Task Identify the reported amyloid nucleation score for the following entry. `YEPCLRSQNVSS`
## Result 0.112

## Task Identify the reported amyloid nucleation score for the following entry. `TWRLKVVGQRQTFSKFTGLG`
## Result -0.133

---

Form field: amyloid nucleation score (one value per entry).
Test: amyloid nucleation score (Sup35N fusion, yeast selection) (log enrichment); library NNK1; higher = more nucleation; inactive = no reads after selection
Output: the number by itself.

In the examples that follow, each entry is paired with its recorded amyloid nucleation score.
[
  {
    "Sequence record": "MGFQFNTFCF",
    "Meas value": 8.14
  },
  {
    "Sequence record": "YSGRRQETNVGRLRSNWGGL",
    "Meas value": -0.568
  },
  {
    "Sequence record": "AQSPQVNSLWCGMNFTTFPG",
    "Meas value": 1.92
  },
  {
    "Sequence record": "VFKGQMVVPPIYVYLVSWMG",
    "Meas value": -1.06
  },
  {
    "Sequence record": "VTSSFWFFNDADSRQ",
    "Meas value": 3.24
  }
]

## Task Identify the reported amyloid nucleation score for the following entry. `ICFRIIVAIVQRV`
## Result 1.14

## Task Identify the reported amyloid nucleation score for the following entry. `FSDVCGPSPLCW`
## Result 0.142

## Task Identify the reported amyloid nucleation score for the following entry. `EAGNTDSAINGVRAKDGS`
## Result 1.15

## Task Identify the reported amyloid nucleation score for the following entry. `EVVEWSLTKNCLFHALFIWV`
## Result -0.142

---

Assay: amyloid nucleation score (Sup35N fusion, yeast selection) (log enrichment); library NNK3; higher = more nucleation; inactive = no reads after selection
Property name: amyloid nucleation score

In the examples that follow, each entry is paired with its recorded amyloid nucleation score.
[
  {
    "Sequence record": "LRTFKITFRGTVKTRRSLTN",
    "amyloid nucleation score": 0.466
  },
  {
    "Sequence record": "SWIKEFIQFIFIEGFRC",
    "amyloid nucleation score": "inactive"
  },
  {
    "Sequence record": "ICGIDSLN",
    "amyloid nucleation score": "inactive"
  },
  {
    "Sequence record": "GIGLCVGYE",
    "amyloid nucleation score": "inactive"
  },
  {
    "Sequence record": "FGVFVWEVVVGNMLLPHMVN",
    "amyloid nucleation score": "inactive"
  },
  {
    "Sequence record": "KLDSLPEYFSATLWLDMSVF",
    "amyloid nucleation score": "inactive"
  }
]

## Task Identify the reported amyloid nucleation score for the following entry. `SYMYLRGVLRYLVDMFALWI`
## Result inactive

## Task Identify the reported amyloid nucleation score for the following entry. `ILVWNLYLT`
## Result 2.54

## Task Identify the reported amyloid nucleation score for the following entry. `VGHERTVSLQHCGRRLRWCW`
## Result inactive
